Some compounds, each annotated with its measured pIC50.
tgt: ShHTL7 (Striga hermonthica, UniProt A0A0M3PNA2)
Sequence (A0A0M3PNA2 1-271): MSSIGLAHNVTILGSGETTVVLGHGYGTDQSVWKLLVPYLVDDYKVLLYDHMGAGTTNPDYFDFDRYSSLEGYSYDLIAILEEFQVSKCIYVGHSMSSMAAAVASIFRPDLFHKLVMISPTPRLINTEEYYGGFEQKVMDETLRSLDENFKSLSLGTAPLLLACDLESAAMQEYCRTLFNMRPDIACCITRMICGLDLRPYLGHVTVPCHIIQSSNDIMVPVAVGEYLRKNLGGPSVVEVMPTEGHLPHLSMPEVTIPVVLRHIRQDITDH
method-notes: YLG assay (inhibition of YLG hydrolysis) with recombinant ShHTL7
Type: biochemical
experimental-parameters: read-out: IC50 in YLG assay, 1 h incubation
Would you please state pIC50, meaning minus log10 of the concentration in mol/L, as a bare number?

Ask: Reported pIC50 for CCOc1ccc(/C=C/C(=O)OC2C=C(C)C(=O)O2)cc1 (centres unmarked) : what is it?
Reply: 5.40

Consider now this further compound.
Ask: Reported pIC50 for CCOc1ccc(/C=C\C(=O)OC2C=C(C)C(=O)O2)cc1 (centres unmarked) : what is it?
Reply: 6.51

meta.source: paper PMC9002265
